- assay_target: chicken gizzard smooth muscle myosin subfragment-1 chemically crosslinked to either cardiac or skeletal actin (Gallus gallus)
pIC50: −log10 of the molar value.
Where pIC50 equals or exceeds 5, the correct label is yes; where it does not, the label is no.

> print(dat)
                                   compound  answer.label
1  C[C@H](CNC(=O)c1cc(F)c(N2CCCC2)nc1NCCc1cccc(F)c1)NC(=O)CN [Compound 82]           yes
2  CC(=O)NC1CCN(c2ccc(C(=O)NCc3cccnc3)c(NCCc3cccc(F)c3)n2)C1 (stereo not drawn) [Compound 118]            no
3  NCc1ncccc1CNC(=O)c1cc(F)c(C2CC2)nc1NCCc1cccc(F)c1 [Compound 81]           yes
4  CN(C)[C@@H]1CCN(c2ccc(C(=O)NCc3cccnc3)c(NCCc3cccc(F)c3)n2)C1 [Compound 92]            no
